B1: Hairpin Ribozyme (parent)
chain: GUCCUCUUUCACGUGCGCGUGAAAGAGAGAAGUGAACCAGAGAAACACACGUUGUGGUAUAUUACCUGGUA

Variants of: B1
PROCEDURE DETAILS: self-cleavage, relative activity (ratio to wild type); higher = more cleavage; co-transcriptional
So basically: self-cleavage at 0.2 or higher? That is True. Lower than 0.2? That is False.

> print(dat)
                                   residues  label.value
1  GUCCUCUUUCACGUGCCCGUGAAAGAGAGAAGUCAACCAGAGAAACACACGUUGUGGUAUAUUACCUGGUA         True
2  GUCCUCUUUCACGUGCGCGUCAAAGACAGAAGUGAACCAGAGAAACACACGUUGUGGUAUAUUACCUGGUA        False
3  GUCCUCUUUCACGUGCGCGUGAAAGAGAGAAGUAAACCAGAGAAACCCACGUUGUGGUAUAUUACCUGGUA         True
4  GUCCUCUUUCACGUGCGCGUGAAAGAGAGAACUGAACCAGAGAAACAUACGUUGUGGUAUAUUACCUGGUA        False
5  GUCCUUUUUCACGUGCGCGUGAAAGAGAGAAGUGAUCCAGAGAAACACACGUUGUGGUAUAUUACCUGGUA         True

Is it the case that "GUCCUCUUUCACGUGCGCGUGAAAGAGAGAAGGGAACCAGAGAAACACACGUUGUGGUAUAUUACCUUGUA" has self-cleavage reaching or exceeding 0.2?
False

Please check the record "GUCCUCUUUCACGUGUGCGUGAGAGAGAGAAGUGAACCAGAGAAACACACGUUGUGGUAUAUUACCUGGUA" and state if its self-cleavage is at or above 0.2.
True

Reported self-cleavage reaches at least 0.2 for "GUCCUCUUUCACGUGCGCGUGAAAGAGAGAAGUCCACCAGAGAAACACACGUUGUGGUAUAUUACCUGGUA" ?
True

For this variant, is measured self-cleavage 0.2 or higher? "GCCCUCUUUCACGUGCGCGUGAAAGAGAGAAGUGAACGAGAGAAACACACGUUGUGGUAUAUUACCUGGUA"
False

# check: self-cleavage of "GUCCUCUUUCACGUGCGCAUGAAAGAGAGAAGUGAACCUGAGAAACACACGUUGUGGUAUAUUACCUGGUA" is greater than or equal to 0.2
True

Is self-cleavage for "GUCCUCUUUCACGUGCGCGUGAAAGAGAGAAGUGAACCAGAGAAACACACAUUGUGGAAUAUUACCUGGUA" at or above 0.2?
True
